assay.system: Hypoxia-inducible factor 1-alpha (Homo sapiens, UniProt Q16665)
Sequence (Q16665 whole entry): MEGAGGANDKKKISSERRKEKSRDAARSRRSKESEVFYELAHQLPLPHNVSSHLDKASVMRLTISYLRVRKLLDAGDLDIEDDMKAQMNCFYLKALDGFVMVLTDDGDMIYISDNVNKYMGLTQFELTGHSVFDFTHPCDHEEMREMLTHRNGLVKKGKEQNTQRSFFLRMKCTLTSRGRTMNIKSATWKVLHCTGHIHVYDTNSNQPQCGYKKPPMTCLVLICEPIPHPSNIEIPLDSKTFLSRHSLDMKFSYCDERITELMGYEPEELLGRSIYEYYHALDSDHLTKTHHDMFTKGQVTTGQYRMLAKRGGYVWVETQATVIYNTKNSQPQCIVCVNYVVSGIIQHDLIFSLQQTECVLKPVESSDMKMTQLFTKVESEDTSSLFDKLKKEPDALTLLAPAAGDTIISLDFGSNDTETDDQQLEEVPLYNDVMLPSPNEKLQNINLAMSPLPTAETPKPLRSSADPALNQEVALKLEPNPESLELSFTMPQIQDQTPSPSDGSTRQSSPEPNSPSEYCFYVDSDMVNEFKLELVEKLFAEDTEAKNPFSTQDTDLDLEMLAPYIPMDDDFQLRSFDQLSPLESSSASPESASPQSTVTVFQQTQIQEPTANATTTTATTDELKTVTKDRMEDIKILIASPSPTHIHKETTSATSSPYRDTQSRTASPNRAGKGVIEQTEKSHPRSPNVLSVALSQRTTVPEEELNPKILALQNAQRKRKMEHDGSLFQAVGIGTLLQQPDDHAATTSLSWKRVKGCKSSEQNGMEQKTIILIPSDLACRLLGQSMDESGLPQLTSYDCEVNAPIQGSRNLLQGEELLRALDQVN
protocol.details: Activation of human HIF1alpha expressed in DFX-induced human U2OS cells incubated for 30 mins prior to DFX-induction measured after overnight incubation by luciferase reporter gene assay
metric: EC50 (µM)

molecular.string	assay.system	metric	measured.result
Cc1ccccc1CNc1nc(-c2ccccn2)nnc1-c1ccccc1	Hypoxia-inducible factor 1-alpha (Homo sapiens, UniProt Q16665)	EC50	6.67
c1ccc(-c2nnc(-c3ccccn3)nc2NCC2CCCCC2)cc1	Hypoxia-inducible factor 1-alpha (Homo sapiens, UniProt Q16665)	EC50	4.74
OCC1CCN(c2nc(-c3ccccn3)nnc2-c2ccccc2)CC1	Hypoxia-inducible factor 1-alpha (Homo sapiens, UniProt Q16665)	EC50	22.9
CCCCNC(=O)c1cc(-c2ccc(F)cc2)on1	Hypoxia-inducible factor 1-alpha (Homo sapiens, UniProt Q16665)	EC50	8.85
Clc1cccc(CNc2nc(-c3ccccn3)nnc2-c2ccccc2)c1	Hypoxia-inducible factor 1-alpha (Homo sapiens, UniProt Q16665)	EC50	2.33
c1ccc(-c2nnc(-c3ccccn3)nc2NCc2ccccn2)cc1	Hypoxia-inducible factor 1-alpha (Homo sapiens, UniProt Q16665)	EC50	27.8
CC(C)(C)CCNc1nc(-c2ccccn2)nnc1-c1ccccc1	Hypoxia-inducible factor 1-alpha (Homo sapiens, UniProt Q16665)	EC50	2.97
c1ccc(-c2nnc(-c3ccccn3)nc2NCc2cccnc2)cc1	Hypoxia-inducible factor 1-alpha (Homo sapiens, UniProt Q16665)	EC50	26
OCCCNc1nc(-c2ccccn2)nnc1-c1ccccc1	Hypoxia-inducible factor 1-alpha (Homo sapiens, UniProt Q16665)	EC50	25
c1ccc(-c2nnc(-c3ccccn3)nc2NCCCN2CCOCC2)cc1	Hypoxia-inducible factor 1-alpha (Homo sapiens, UniProt Q16665)	EC50	14.2
O=C(NCCCCO)c1cc(-c2ccccc2)on1	Hypoxia-inducible factor 1-alpha (Homo sapiens, UniProt Q16665)	EC50	22
C=CCNc1nc(-c2ccccn2)nnc1-c1ccccc1	Hypoxia-inducible factor 1-alpha (Homo sapiens, UniProt Q16665)	EC50	7.13

Origin of values: BindingDB's records for doi:10.1016/j.bmcl.2011.11.077
